# Tested on: Fer (mouse);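 also: 11-residue human phosphosite peptides and single-mutation variants displayed on the E. coli surface, counted by deep sequencing, each peptide's frequency after selection divided by its frequency in the unselected input library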;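 also: frequency after pTyr selection over input frequency; kinase dosed for 20-30% of maximal phosphorylation in three min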
# experimentDescription: phosphorylation enrichment, bacterial display (enrichment ratio); higher = better substrate or ligand; peptides without Tyr show the background
readoutType: phosphorylation enrichment

The sequence listed as DTQNSYRCATS [TSC1_Y304_G305R] shows phosphorylation enrichment equal to 0.392

The sequence listed as AGIENYKSRFG [NKD2_Y256_T257K] shows phosphorylation enrichment equal to 0.409

The sequence listed as ILTFKYLQIPM [KIT_Y547_K550I_YF] shows phosphorylation enrichment equal to 0.521

The sequence listed as LSQAKYQIRFR [CRLF1_Y272_F268S_YF] shows phosphorylation enrichment equal to 0.499

The sequence listed as LSSEMYVKSYT [F5_Y2149] shows phosphorylation enrichment equal to 0.771

The sequence listed as SVMAEYGLFRA [VSX2_Y219_G223R_YF] shows phosphorylation enrichment equal to 0.513

The sequence listed as ATVRPYRPFII [LRP5_Y1528_A1525V_YF] shows phosphorylation enrichment equal to 0.406

The sequence listed as PNQRRYVYYYS [PTEN_Y174_S170N] shows phosphorylation enrichment equal to 0.817

These entries and their values trace back to the supplement of paper PMC10065799.
